Test system: biotinyl-Leu-oxazolone
Assay: self-aminoacylation, catalytic enhancement (BLO) (fold over background); higher = more active; k-Seq, kA / k0A0; sequences stand for … in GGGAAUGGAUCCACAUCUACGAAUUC…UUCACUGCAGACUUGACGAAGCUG
This sample holds only a part of the variants without activity.
Think of 1 as a floor: if self-aminoacylation stands on it or above, it is TRUE; beneath it, FALSE.

Could you please find out whether AAUUGUGCUAAUAGUCGCAAG [Fam3.1 aminoacylation ribozyme variant] has self-aminoacylation that meets 1 or exceeds it?
TRUE

Could you please find out whether CCACACUUCAAACAAUCGCUC [Fam1B.1 aminoacylation ribozyme variant] has self-aminoacylation that meets 1 or exceeds it?
TRUE

Could you please find out whether CUACUUCAAACUAUCGCUCUG [Fam1A.1 aminoacylation ribozyme variant] has self-aminoacylation that meets 1 or exceeds it?
FALSE

Could you please find out whether AUUCACCUUGGUGAUCGGGUG [Fam2.2 aminoacylation ribozyme variant] has self-aminoacylation that meets 1 or exceeds it?
TRUE

Could you please find out whether GUUACCCUGGACAUCGAGUGA [Fam2.1 aminoacylation ribozyme variant] has self-aminoacylation that meets 1 or exceeds it?
TRUE

Could you please find out whether CCGCUCUUCAAGCAAUCGGUC [Fam1B.1 aminoacylation ribozyme variant] has self-aminoacylation that meets 1 or exceeds it?
TRUE

Could you please find out whether CCACACUUCAUGCAAUAGGUC [Fam1B.1 aminoacylation ribozyme variant] has self-aminoacylation that meets 1 or exceeds it?
FALSE

Could you please find out whether AUUACCCUGGUCAUCGAAUGA [Fam2.1 aminoacylation ribozyme variant] has self-aminoacylation that meets 1 or exceeds it?
TRUE

Could you please find out whether AUUCCCCUGGUCAUCGAGUGU [Fam2.1 aminoacylation ribozyme variant] has self-aminoacylation that meets 1 or exceeds it?
TRUE

Could you please find out whether AUUGAUCUAGGUCAUCGGGUG [Fam2.2 aminoacylation ribozyme variant] has self-aminoacylation that meets 1 or exceeds it?
TRUE

Could you please find out whether UACUUUGCUAAUAGUCGCAAG [Fam3.1 aminoacylation ribozyme variant] has self-aminoacylation that meets 1 or exceeds it?
TRUE

Could you please find out whether CUACACUUCAAGCAAUCGGUU [Fam1B.1 aminoacylation ribozyme variant] has self-aminoacylation that meets 1 or exceeds it?
TRUE

Could you please find out whether CUACUUGAAACAAUCGGUCCG [Fam1A.1 aminoacylation ribozyme variant] has self-aminoacylation that meets 1 or exceeds it?
FALSE

Could you please find out whether AUUCACCUUGGUCAUCGGUUG [Fam2.2 aminoacylation ribozyme variant] has self-aminoacylation that meets 1 or exceeds it?
FALSE

Could you please find out whether CCACACCUGAAGCAAUCGGUC [Fam1B.1 aminoacylation ribozyme variant] has self-aminoacylation that meets 1 or exceeds it?
FALSE

Could you please find out whether UUUACCGUGGUCAUCGAGUGA [Fam2.1 aminoacylation ribozyme variant] has self-aminoacylation that meets 1 or exceeds it?
TRUE

Could you please find out whether ACUUACCUAGGUCAUCGGGUG [Fam2.2 aminoacylation ribozyme variant] has self-aminoacylation that meets 1 or exceeds it?
TRUE

Could you please find out whether CCACACUUCAAGUUAUCGGUC [Fam1B.1 aminoacylation ribozyme variant] has self-aminoacylation that meets 1 or exceeds it?
TRUE

Could you please find out whether AUUCCCCUGGUCGUCGAGUGA [Fam2.1 aminoacylation ribozyme variant] has self-aminoacylation that meets 1 or exceeds it?
TRUE

Could you please find out whether AUUCACUUGGGUCAUCGGGUG [Fam2.2 aminoacylation ribozyme variant] has self-aminoacylation that meets 1 or exceeds it?
TRUE

Could you please find out whether AUUACCCUGGUCAUCGAAUGC [Fam2.1 aminoacylation ribozyme variant] has self-aminoacylation that meets 1 or exceeds it?
FALSE

Could you please find out whether UUUAACCUAGGUCAUCGGGUG [Fam2.2 aminoacylation ribozyme variant] has self-aminoacylation that meets 1 or exceeds it?
TRUE

Could you please find out whether CCACGCUUCAAGCAAUCGGUU [Fam1B.1 aminoacylation ribozyme variant] has self-aminoacylation that meets 1 or exceeds it?
TRUE

Could you please find out whether CUACUUCAAUCAAUGGGUCUG [Fam1A.1 aminoacylation ribozyme variant] has self-aminoacylation that meets 1 or exceeds it?
FALSE

Could you please find out whether AUUCACCUAGGUUAUCGGCUG [Fam2.2 aminoacylation ribozyme variant] has self-aminoacylation that meets 1 or exceeds it?
TRUE

Could you please find out whether AUUACCCUGGACAUCGAGCGA [Fam2.1 aminoacylation ribozyme variant] has self-aminoacylation that meets 1 or exceeds it?
TRUE

Could you please find out whether AUUCACUUAGGUCAUCGAGUG [Fam2.2 aminoacylation ribozyme variant] has self-aminoacylation that meets 1 or exceeds it?
TRUE

Could you please find out whether AACUUUGCUAAUAGUCGCAAU [Fam3.1 aminoacylation ribozyme variant] has self-aminoacylation that meets 1 or exceeds it?
TRUE

Could you please find out whether CCACACUUCAAGCAACCGGUG [Fam1B.1 aminoacylation ribozyme variant] has self-aminoacylation that meets 1 or exceeds it?
TRUE

Could you please find out whether AAUACCCUGGUCAUAGAGUGA [Fam2.1 aminoacylation ribozyme variant] has self-aminoacylation that meets 1 or exceeds it?
TRUE

Could you please find out whether CCACACUUCCCGCAAUCGGUC [Fam1B.1 aminoacylation ribozyme variant] has self-aminoacylation that meets 1 or exceeds it?
TRUE

Could you please find out whether AAGUUUGCUAAUAAUGGCAAG [Fam3.1 aminoacylation ribozyme variant] has self-aminoacylation that meets 1 or exceeds it?
FALSE
